Task for the reader: assign each of the following molecules its reported Plant response rating, Wheat.
# Tested on: wheat
# Assay comment: Test C preemergence
# Assay type: in vivo, Triticum aestivum
# Reported conditions: preemergence, 125 g ai/ha; 13 to 15 days; scale 0 to 100, 0 = no effect, 100 = complete control
# Description: […]
Returns: the value as a bare number; no unit string appended.

Incoming: Reported Plant response rating, Wheat, molecule CCCNC(=O)c1cc(CCCl)n(Cc2ccnc(C(F)(F)F)c2)n1 : ____
Outgoing: 50

Incoming: Reported Plant response rating, Wheat, molecule CCOc1cc(C(=O)NC2CC2)nn1Cc1ccnc(OC(F)F)c1 : ____
Outgoing: 90

Incoming: Reported Plant response rating, Wheat, molecule CCCc1cc(C(=O)NOCC)nn1Cc1ccnc(C(F)(F)F)c1 : ____
Outgoing: 85

----------
# System: wheat
# Assay comment: Test A postemergence
# Assay type: in vivo, Triticum aestivum
# Reported conditions: Postemergence, 1000 g ai/ha; visual rating after approx. 10 days, 0 to 100 scale (0 no effect, 100 complete control)
Task for the reader: assign each of the following compounds its reported Wheat plant response rating.
Returns: the value as a bare number; no unit string appended.

Incoming: Reported Wheat plant response rating, compound CCNC(=O)c1cc(CC)n(Cc2cccc(OC(F)(F)F)c2)n1 [Compound 19] : ____
Outgoing: 20

Incoming: Reported Wheat plant response rating, compound CCc1cc(C(=O)N(C)OC)nn1Cc1cccc(OC(F)(F)F)c1 [Compound 67] : ____
Outgoing: 20

Incoming: Reported Wheat plant response rating, compound CCc1cc(C(=O)N(C)CC)nn1Cc1cccc(OC(F)(F)F)c1 [Compound 68] : ____
Outgoing: 20

----------
# Test system: foxtail, giant
# Assay comment: Test A preemergence
# Type: in vivo, Setaria faberii
# Reported conditions: preemergence, 125 g ai/ha; visual injury, 0 to 100 scale, approx. 10 days
Output condition met for Foxtail, Giant plant response rating not less than 20; output condition not met otherwise.

Incoming: Would you say Cc1cc(C(=O)NC2CC2)nn1Cc1cc(F)cc(C(F)(F)F)c1 [Compound 14] shows Foxtail, Giant plant response rating at minimum 20?
Outgoing: condition not met

Incoming: Would you say CCc1cc(-c2ccc(F)cc2)nn1Cc1ccnc(C(F)(F)F)c1 [Compound 111] shows Foxtail, Giant plant response rating at minimum 20?
Outgoing: condition met

Incoming: Would you say CCc1cc(C(=O)NOC(C)C)nn1Cc1ccnc(C(F)(F)F)c1 [Compound 101] shows Foxtail, Giant plant response rating at minimum 20?
Outgoing: condition met

Incoming: Would you say CCCNC(=O)c1cc(C)n(Oc2ccnc(C(F)(F)F)c2)n1 [Compound 80] shows Foxtail, Giant plant response rating at minimum 20?
Outgoing: condition met

Incoming: Would you say CCCCNC(=O)c1cc(CC)n(Oc2ccnc(C(F)(F)F)c2)n1 [Compound 86] shows Foxtail, Giant plant response rating at minimum 20?
Outgoing: condition not met

Incoming: Would you say CCOc1cc(C(=O)NC2CC2)nn1Cc1ccnc(OC(F)F)c1 [Compound 133] shows Foxtail, Giant plant response rating at minimum 20?
Outgoing: condition met

Incoming: Would you say Cc1cc(C(=O)NCC(F)(F)C(F)(F)F)nn1Cc1cccc(C(F)(F)F)c1 [Compound 8] shows Foxtail, Giant plant response rating at minimum 20?
Outgoing: condition not met

Incoming: Would you say CCCCNC(=O)c1cc(CC)n(Cc2cc(OC(F)F)nn2C)n1 [Compound 135] shows Foxtail, Giant plant response rating at minimum 20?
Outgoing: condition not met
